Experiment: gradient 5% acetonitrile 3 min, to 50% in 2 min, to 85% in 15 min, held 3 min, 100 µL/min
Settings: column: Zorbax Extend-C18 2.1 x 50 mm; eluents: water / acetonitrile, 0.1% formic acid
Quick reference: RP-LC retention time of the listed items.

{"molecule": "COc1cccc(CNC(=O)C2CCc3nc(N4CCOCC4)ncc3C2)c1 (stereo not drawn)", "scale.unit": "s", "RP-LC retention time": 660}
{"molecule": "CCn1cc(-c2nc(C(=O)N3CCN(c4ccc(OC)cc4)CC3)cs2)c2cccnc21", "scale.unit": "s", "RP-LC retention time": 887}
{"molecule": "CCc1onc(C)c1C1CCCN1C(=O)Nc1ccc(OC)c(OC)c1 (stereo not drawn)", "scale.unit": "s", "RP-LC retention time": 796}

---

Test: gradient 5% acetonitrile 3 min, to 50% in 2 min, to 85% in 15 min, held 3 min, 100 µL/min
Settings: column: Zorbax Extend-C18 2.1 x 50 mm; eluents: water / acetonitrile, 0.1% formic acid
Classify as follows. Reported RP-LC retention time greater than or equal to 900 s: yes. Reported RP-LC retention time below: no.

{"molecule": "COc1ccc(NC(=O)Cn2nc(N3CCOCC3)c3ccccc3c2=O)cc1Cl", "class.name": "no"}
{"molecule": "Cc1ccc(CC(=O)N2CCC3(CC2)NC(=O)c2ccc(F)cc2N3C)cc1", "class.name": "no"}
{"molecule": "Cc1ccccc1N1C[C@@]23C=C[C@@H](O2)[C@H](C(=O)OC(C)C)[C@@H]3C1=O", "class.name": "no"}
{"molecule": "COc1cccc(OC)c1OCC(O)CN1CCN(c2ccc(F)cc2)CC1 (centres undefined)", "class.name": "no"}
{"molecule": "O=C(c1cc(-c2ccccc2)n[nH]1)N1C[C@H]2CNC(=O)[C@]23CCCC[C@@H]13", "class.name": "no"}
{"molecule": "COc1ccc2c(c1)C1(CCN(C(=O)c3ccc(Cl)cc3)C1)C(=O)N2 (centres undefined)", "class.name": "no"}
{"molecule": "Cc1ccc(C)c(N2CCN(S(=O)(=O)c3cc(-c4nnc(C5CC5)o4)co3)CC2)c1", "class.name": "yes"}
{"molecule": "Cc1ccc(-c2nnc(Cc3nc(-c4cccc(C(F)(F)F)c4)no3)o2)cc1F", "class.name": "yes"}

---

Assay: gradient 5% acetonitrile 3 min, to 50% in 2 min, to 85% in 15 min, held 3 min, 100 µL/min
Details: column: Zorbax Extend-C18 2.1 x 50 mm; eluents: water / acetonitrile, 0.1% formic acid

{"compound": "O=C(c1nnc(-c2ccc(S(=O)(=O)N3CCCCC3)cc2)o1)N1CCC(Cc2ccccc2)CC1", "RP-LC retention time": "1230 s"}
{"compound": "c1coc(-c2nnc(Nc3nc4cc5c(cc4s3)OCO5)o2)c1", "RP-LC retention time": "694 s"}
{"compound": "CC1CCCN(S(=O)(=O)c2cccc(-c3cn4cc(Cl)ccc4n3)c2)C1 (centres undefined)", "RP-LC retention time": "999 s"}
{"compound": "O=C(c1cn(-c2ccc(-c3nc(C4CC4)no3)cn2)cn1)N1CCCCCC1", "RP-LC retention time": "928 s"}
{"compound": "CC(C)NC(=O)N1CCCC(c2cccc(C(=O)NCCCN3CCOCC3)c2)C1 (centres undefined)", "RP-LC retention time": "598 s"}
{"compound": "O=C(c1cncc(Br)c1)N1CCC(Cc2nnc(-c3ccccc3)o2)CC1", "RP-LC retention time": "782 s"}
{"compound": "CC1(C)C(=O)Nc2ccc(S(=O)(=O)N3CCC(c4noc(C5CC5)n4)C3)cc21 (centres undefined)", "RP-LC retention time": "747 s"}
{"compound": "O=C(NCc1ccccc1)C1CCc2nc(N3CCN(C(=O)C4CCC4)CC3)sc2C1 (centres undefined)", "RP-LC retention time": "578 s"}
{"compound": "CC1CCCCN1CCCNC(=O)CCCn1c(=O)c2cccn2c2ccc(Br)cc21 (centres undefined)", "RP-LC retention time": "674 s"}
{"compound": "Cc1ccc(CNC(=O)c2cc3c(n(-c4ccc(C(F)(F)F)cc4)c2=O)CCCC3=O)o1", "RP-LC retention time": "634 s"}
{"compound": "COc1nccnc1N1CCC(N(C)C(=O)Cc2ccsc2)C1 (centres undefined)", "RP-LC retention time": "719 s"}
{"compound": "Cc1cc(N2CCCC2)nc(N2CCN(S(=O)(=O)c3ccc4c(c3)Cc3ccccc3-4)CC2)n1", "RP-LC retention time": "924 s"}
{"compound": "O=C(Cn1nc2c3cc(-c4ccc(F)cc4)nn3ccn2c1=O)Nc1ccc(F)cc1", "RP-LC retention time": "888 s"}
{"compound": "O=C(NCCCn1cccc1)c1cc(-c2ccccc2)on1", "RP-LC retention time": "888 s"}
{"compound": "CC(C)c1nnc(-c2sccc2NC(=O)C2CCC2)o1", "RP-LC retention time": "1230 s"}
{"compound": "COc1ccccc1C(=O)Oc1ccc(N(C)C2=NS(=O)(=O)c3ccccc32)cc1", "RP-LC retention time": "910 s"}
{"compound": "COc1ccc(OC)c(Nc2c(-c3ccc4c(c3)OCO4)nc3cnccn23)c1", "RP-LC retention time": "829 s"}
{"compound": "CCN1CCn2cc(S(=O)(=O)Nc3cc(Cl)ccc3OC)cc2C1=O", "RP-LC retention time": "764 s"}
{"compound": "Cc1cc(C)c(C(=O)N2CCCC(C(=O)NC3CCCCC3)C2)[nH]1 (centres undefined)", "RP-LC retention time": "809 s"}
{"compound": "CCc1nncn1C1CCN(S(=O)(=O)c2cc(F)ccc2OC)CC1", "RP-LC retention time": "696 s"}
{"compound": "O=C1CC(c2noc(-c3ccccc3F)n2)CN1c1ccc(Cl)cc1 (centres undefined)", "RP-LC retention time": "1010 s"}
{"compound": "CN(Cc1ccccc1)C(=O)CCNc1c(-c2cccc(F)c2)nc2cnccn12", "RP-LC retention time": "814 s"}
{"compound": "Clc1ccc(-c2nc(N3CCC4(CC3)OCCO4)c3ccccc3n2)cc1", "RP-LC retention time": "822 s"}
{"compound": "COc1ccc(-c2nnc(-c3ccccc3Cl)o2)cc1S(=O)(=O)N1CCCC1", "RP-LC retention time": "969 s"}
{"compound": "COc1ccccc1-c1noc(-c2nc(C)no2)n1", "RP-LC retention time": "877 s"}
{"compound": "Cc1ccc(-c2nnc(-c3ccc(-n4ccnc4)nc3)o2)cc1F", "RP-LC retention time": "716 s"}
{"compound": "O=C(c1cccs1)N1N=C(c2cccs2)CC1c1cc([N+](=O)[O-])ccc1O (centres undefined)", "RP-LC retention time": "876 s"}
{"compound": "Cc1ccccc1Cn1cc(S(=O)(=O)N2CCOCC2)ccc1=O", "RP-LC retention time": "784 s"}
{"compound": "COc1cc(C(C)=O)ccc1OC(=O)c1cc2c(C)nn(-c3ccccc3)c2s1", "RP-LC retention time": "1190 s"}
{"compound": "O=C(Nc1cccc(F)c1)N1CCC(CCNC(=O)C2(c3ccccc3)CC2)CC1", "RP-LC retention time": "883 s"}
{"compound": "O=C(c1ccnc(N2CCNC(c3ccccc3)C2)c1)N1CCN(c2ncccn2)CC1 (centres undefined)", "RP-LC retention time": "608 s"}
{"compound": "CCc1ccc(S(=O)(=O)N2CCc3c(c(-c4nnc(-c5ccccc5)o4)nn3C)C2)cc1", "RP-LC retention time": "1030 s"}
{"compound": "COc1ccc(NC(=O)Cn2c(N3CCOCC3)nc(C)cc2=O)c(OC)c1", "RP-LC retention time": "669 s"}
{"compound": "Cc1ccc2c(Nc3ccccc3C)c(-c3nc(C)no3)cnc2n1", "RP-LC retention time": "743 s"}
